Recorded values, source paper PMC3855065.

target: C. hominis TS (Cryptosporidium parvum, UniProt Q27552); assay: Steady-state TS inhibition assay; assay type: biochemical; conditions: read-out: IC50 C. hominis TS
Sequence (Q27552 1-521): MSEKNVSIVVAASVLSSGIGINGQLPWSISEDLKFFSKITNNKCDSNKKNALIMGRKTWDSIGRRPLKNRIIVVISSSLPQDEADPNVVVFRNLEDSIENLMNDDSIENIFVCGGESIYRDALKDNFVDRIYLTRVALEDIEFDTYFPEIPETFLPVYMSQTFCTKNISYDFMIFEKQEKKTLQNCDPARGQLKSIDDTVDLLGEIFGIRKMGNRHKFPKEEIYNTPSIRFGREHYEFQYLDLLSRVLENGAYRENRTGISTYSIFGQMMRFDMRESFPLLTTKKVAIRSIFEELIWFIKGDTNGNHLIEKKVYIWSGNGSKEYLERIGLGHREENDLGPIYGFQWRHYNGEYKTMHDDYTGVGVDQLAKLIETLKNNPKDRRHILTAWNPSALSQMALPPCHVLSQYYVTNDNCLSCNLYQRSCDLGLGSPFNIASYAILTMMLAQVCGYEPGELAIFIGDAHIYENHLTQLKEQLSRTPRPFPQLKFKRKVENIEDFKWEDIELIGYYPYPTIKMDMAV
MEASUREMENT_TYPE: IC50 (µM)
Hi! Could you send only the number? It should be in µM, unit omitted.

In: Please tell me: IC50 of CC(C)CN(C(=O)Nc1ccc(CCC(=O)O)cc1Cc1ccccc1)C(=O)c1ccc(OCC(=O)O)c(Cc2ccccc2)c1 , system C. hominis TS (Cryptosporidium parvum, UniProt Q27552)?
Out: 570
